These measurements were taken from patent US8334316B2.

assay: Acute toxicity, single intravenous injection, LD50 (Bliss method) in Kunming mice; type: in vivo; conditions: male, Kunming, mouse, in vivo, iv, male Kunming mice, single i.v.; read-out: LD50
READOUT_LABEL: LD50 at 2 weeks (mg/kg)

1. c1ccc(CSSSCc2ccccc2)cc1 [DBTS, Dibenzyl trisulfide] | 261

* * *

assay: Acute toxicity, single intravenous injection, LD50 (Bliss method) in Kunming mice; type: in vivo; conditions: both sexes, Kunming, mouse, in vivo, iv, 50% male, 50% female Kunming mice, single i.v.; read-out: LD50 (95% CL)
READOUT_LABEL: LD50 at 2 weeks

1) c1ccc(CSSSCc2ccccc2)cc1 [DBTS, Dibenzyl trisulfide] | 235 to 284 mg/kg
